target: Aβ42 (Homo sapiens, UniProt P05067); test: Th-T (thioflavin-T) assay of Aβ42 aggregation; format: biochemical; conditions: head suffix _50 (concentration 50); reading M79
Sequence (P05067 672-713): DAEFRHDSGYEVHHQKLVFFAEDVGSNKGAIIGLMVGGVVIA
As shown below, each of these compounds has a reported Th-T fluorescence of Aβ42 (sheet Fig. 7a), mean of three wells value.
readout name: Th-T fluorescence of Aβ42 (sheet Fig. 7a), mean of three wells

1) C=C1CCC2C(C)(CCC=C(C)C)C(O)CCC2(C)C1Cc1c(OC)oc(C)c(C(=O)OC)c1=O (centres unmarked) | 2.356
2) C=C1CC[C@@H]2[C@](C)(CC[C@H]3O[C@H](C=C(C)C)C[C@@]23C)[C@@H]1Cc1c(OC)oc(CO)c(C(=O)OC)c1=O | 0.3191
3) C=C1CC[C@@H]2[C@](C)(CC[C@H]3O[C@H](C=C(C)C)C[C@@]23C)[C@@H]1Cc1c(OC)oc(CO)c(C)c1=O | 2.1153
4) C=C1CCC2C(C)(CCC=C(C)C)C(O)CCC2(C)C1Cc1c(OC)oc(CO)c(C)c1=O (centres unmarked) | 1.425
5) C=C1CCC2C(C)(CCC=C(C)C)C(O)CCC2(C)C1Cc1c(OC)oc(CO)c(C(=O)OC)c1=O (centres unmarked) | 0.4696

###

target: UniProt:P05067; test: Th-T (thioflavin-T) assay of Aβ42 aggregation; format: biochemical; settings: compound at 20; reading M61 of time course
readout name: Th-T fluorescence, mean of three wells

1) C=C1CCC2C(C)(CCC=C(C)C)C(O)CCC2(C)C1Cc1c(OC)oc(CO)c(C(=O)OC)c1=O (centres unmarked) | 1.018
2) C=C1CC[C@@H]2[C@](C)(CC[C@H]3O[C@H](C=C(C)C)C[C@@]23C)[C@@H]1Cc1c(OC)oc(CO)c(C(=O)OC)c1=O | 0.2372
3) C=C1CCC2C(C)(CCC=C(C)C)C(O)CCC2(C)C1Cc1c(OC)oc(C)c(C(=O)OC)c1=O (centres unmarked) | 2.064
4) C=C1CC[C@@H]2[C@](C)(CC[C@H]3O[C@H](C=C(C)C)C[C@@]23C)[C@@H]1Cc1c(OC)oc(CO)c(C)c1=O | 3.433
5) C=C1CCC2C(C)(CCC=C(C)C)C(O)CCC2(C)C1Cc1c(OC)oc(CO)c(C)c1=O (centres unmarked) | 2.0819

###

target: Aβ42 (Homo sapiens); experiment: Th-T (thioflavin-T) assay of Aβ42 aggregation; type: biochemical; settings: reading M21; Supplementary Fig. 47 source data
Classification field. Basis: Th-T fluorescence, mean of three wells. Definitions: L (below 2), M (2 to below 3), H (3 or more)

1. C=C1CC[C@H]2[C@]3(C)C[C@@H](C=C(C)C)O[C@H]3CC[C@]2(C)[C@@H]1Cc1c(O)c(C)c(C)oc1=O [Compound 5, subglutinol A] | M
2. C=C1CCC2C3(C)CC(C=C(C)C)OC3CCC2(C)C1Cc1c(OC)oc(C)c(C)c1=O (stereo not drawn) [Compound 23] | H
3. C=C1CC[C@H]2[C@]3(C)C[C@H](C=C(C)C)O[C@H]3CC[C@]2(C)[C@@H]1Cc1c(O)c(C)c(C)oc1=O [Compound 6, subglutinol B] | M
4. C=C1CCC2C(C)(CCC=C(C)C)C(=O)CCC2(C)C1Cc1c(O)c(C)c(C)oc1=O (stereo not drawn) [Compound 8] | L
5. C=C1CC[C@H]2[C@]3(C)C[C@H](C=C(C)C)O[C@H]3CC[C@]2(C)[C@@H]1Cc1c(OC)oc(CO)c(C)c1=O [Compound 18] | H
6. CC(C)=CCC/C(C)=C/CC/C(C)=C/CC/C(C)=C/Cc1c(O)c(C)c(C)oc1=O [Compound 2] | M
7. C=C1CC[C@H]2[C@]3(C)C[C@@H](C=C(C)C)O[C@H]3CC[C@]2(C)[C@@H]1Cc1c(OC)oc(CO)c(C)c1=O [Compound 17] | M
8. C=C1CC[C@@H]2[C@](C)(CC[C@H]3O[C@H](C=C(C)C)C[C@@]23C)[C@@H]1Cc1c(O)c(C)c(C)oc1=O [Compound 10, higginsianin A] | M
9. C=C1CCC2C(C)(CC(=O)C=C(C)C)C(O)CCC2(C)C1Cc1c(O)c(C)c(C)oc1=O (stereo not drawn) [Compound 7] | L
10. C=C1CCC2C(C)(CC(=O)C=C(C)C)C(O)CCC2(C)C1Cc1c(OC)oc(CO)c(C)c1=O (stereo not drawn) [Compound 19] | M
11. C=C1CCC2C(C)(CC(=O)C=C(C)C)C(O)CCC2(C)C1Cc1c(OC)oc(C)c(C)c1=O (stereo not drawn) [Compound 25] | H
12. C=C1CC[C@H]2[C@]3(C)C[C@H](C=C(C)C)O[C@H]3CC[C@]2(C)[C@@H]1Cc1c(OC)oc(C)c(C)c1=O [Compound 24] | H

###

system: DL1 cells; test: cytotoxicity in Drosophila DL1 cells; assay type: cell-based; details: DL1 cells, 1 µM, replicate 1
readout name: Luminescence Raw1

1) C=C1CCC2C(C)(CCC=C(C)C)C(O)CCC2(C)C1Cc1c(O)c(C)c(C)oc1=O (stereo not drawn) [Compound 9, higginsianin B] | 371891
2) C=C1CC[C@H]2[C@]3(C)C[C@@H](C=C(C)C)O[C@H]3CC[C@]2(C)[C@@H]1Cc1c(O)c(C)c(C)oc1=O | 149254
3) C=C1CC[C@H]2[C@]3(C)C[C@H](C=C(C)C)O[C@H]3CC[C@]2(C)[C@@H]1Cc1c(O)c(C)c(C)oc1=O | 157908
4) C=C1CCC2C(C)(CCC=C(C)C)C(O)CCC2(C)C1Cc1c(OC)oc(CO)c(C(=O)OC)c1=O (stereo not drawn) | 197587
5) C=C1CC[C@H]2[C@]3(C)C[C@@H](C=C(C)C)O[C@H]3CC[C@]2(C)[C@@H]1Cc1c(OC)oc(CO)c(C)c1=O | 1292136
6) C=C1CCC2C(C)(CCC=C(C)C)C(O)CCC2(C)C1Cc1c(OC)oc(C)c(C)c1=O (stereo not drawn) | 427059

###

target: Aβ42 (Homo sapiens, UniProt P05067); experiment: Th-T (thioflavin-T) assay of Aβ42 aggregation; type: biochemical; conditions: concentration 20, unit not given; time-course reading M141
readout name: Th-T fluorescence of Aβ42 with compound, mean of three wells (Fig. 7a source data)

1. C=C1CCC2C(C)(CCC=C(C)C)C(O)CCC2(C)C1Cc1c(OC)oc(CO)c(C(=O)OC)c1=O (centres unmarked) | 1.021
2. C=C1CC[C@@H]2[C@](C)(CC[C@H]3O[C@H](C=C(C)C)C[C@@]23C)[C@@H]1Cc1c(OC)oc(CO)c(C)c1=O | 3.02
3. C=C1CCC2C(C)(CCC=C(C)C)C(O)CCC2(C)C1Cc1c(OC)oc(CO)c(C)c1=O (centres unmarked) | 2.207
4. C=C1CCC2C(C)(CCC=C(C)C)C(O)CCC2(C)C1Cc1c(OC)oc(C)c(C(=O)OC)c1=O (centres unmarked) | 1.561
5. C=C1CC[C@@H]2[C@](C)(CC[C@H]3O[C@H](C=C(C)C)C[C@@]23C)[C@@H]1Cc1c(OC)oc(CO)c(C(=O)OC)c1=O | 0.9513

###

target: Aβ42 (Homo sapiens, UniProt P05067); assay: Th-T (thioflavin-T) assay of Aβ42 aggregation; type: biochemical; conditions: reading M36; Supplementary Fig. 47 source data
readout name: Th-T fluorescence, mean of three wells

1. C=C1CC[C@H]2[C@]3(C)C[C@@H](C=C(C)C)O[C@H]3CC[C@]2(C)[C@@H]1Cc1c(OC)oc(CO)c(C)c1=O | 3.12
2. C=C1CC[C@H]2[C@]3(C)C[C@H](C=C(C)C)O[C@H]3CC[C@]2(C)[C@@H]1Cc1c(OC)oc(C)c(C)c1=O | 4.108
3. C=C1CCC2C(C)(CC(=O)C=C(C)C)C(O)CCC2(C)C1Cc1c(OC)oc(CO)c(C)c1=O (centres unmarked) | 3.374
4. C=C1CCC2C(C)(CCC=C(C)C)C(=O)CCC2(C)C1Cc1c(O)c(C)c(C)oc1=O (centres unmarked) | 2.159
5. C=C1CC[C@@H]2[C@](C)(CC[C@H]3O[C@H](C=C(C)C)C[C@@]23C)[C@@H]1Cc1c(O)c(C)c(C)oc1=O | 3.031
6. C=C1CC[C@H]2[C@]3(C)C[C@@H](C=C(C)C)O[C@H]3CC[C@]2(C)[C@@H]1Cc1c(O)c(C)c(C)oc1=O | 2.598
7. C=C1CC[C@H]2[C@]3(C)C[C@H](C=C(C)C)O[C@H]3CC[C@]2(C)[C@@H]1Cc1c(OC)oc(CO)c(C)c1=O | 3.8
8. CC(C)=CCC/C(C)=C/CC/C(C)=C/CC/C(C)=C/Cc1c(O)c(C)c(C)oc1=O | 2.736
